- Test system: MOLT-4 leukemia
- Assay Overview: NCI tumour cell line growth inhibition, 48 h

>  <Compound>
O=S(=O)(c1ccccc1)[C@H]1[C@@H]2O[C@@H]2C[C@@H]1O

>  <TGI>
> 100 µM

$$$$
>  <Compound>
CC(C1CCCC1=O)C1CCCC1=O (stereo unspecified)

>  <TGI>
> 100 µM

$$$$
>  <Compound>
CCCCCC(=O)n1[nH]c(=O)n(-c2ccc(OC)cc2)c1=O

>  <TGI>
> 100 µM

$$$$
>  <Compound>
CCOC(=O)C(CS)NC(=O)CCCCCCCC(=O)O (stereo unspecified)

>  <TGI>
> 100 µM

$$$$
>  <Compound>
Cc1cc(C23OC4COC(C)(C)OC4C2OC(C)(C)O3)nc2ccccc12 (stereo unspecified)

>  <TGI>
> 100 µM

$$$$
>  <Compound>
CC[C@H](Nc1cc(C)nc(N)n1)c1nc2cccc(NCc3ccc(C(=O)NO)cc3)c2c(=O)n1-c1ccccc1

>  <TGI>
10.2 µM

$$$$

###

Entries below carry reported GI50 on HOP-62 NSCLC.

>  <Molecule>
COc1ccc2c(c1)SC1=NNC(Cl)C(=O)N12 (stereo not drawn)

>  <System Name>
HOP-62 NSCLC

>  <GI50>
45.5 µM

$$$$
>  <Molecule>
Clc1ccc(-c2ccc(CNCC3CCNCC3)o2)c(-c2ccccc2)c1

>  <System Name>
HOP-62 NSCLC

>  <GI50>
1.65 µM

$$$$
>  <Molecule>
Cc1ccc2c(c1)c(C1=C(c3cn(C)c4ccccc34)C(=O)NC1=O)cn2C

>  <System Name>
HOP-62 NSCLC

>  <GI50>
3.17 µM

$$$$
>  <Molecule>
CC(=O)N1CCN([C@H]2CCC[C@@H](NC(=O)c3cc4c(F)ccc(C)c4[nH]3)C2)CC1

>  <System Name>
HOP-62 NSCLC

>  <GI50>
15.3 µM

$$$$
>  <Molecule>
CC#CC#Cc1cccc(=O)o1

>  <System Name>
HOP-62 NSCLC

>  <GI50>
13.8 µM

$$$$
>  <Molecule>
COC(=O)c1ccc2[nH]c(O)c(C(=Nc3ccc(N(C)C(=O)CN4CCN(C)CC4)cc3)c3ccc(OC)cc3)c2c1

>  <System Name>
HOP-62 NSCLC

>  <GI50>
1.57 µM

$$$$
>  <Molecule>
C=C1C(=O)c2sccc2C(c2ccc(OC)c(OC)c2)C1COC(C)=O (stereo not drawn)

>  <System Name>
HOP-62 NSCLC

>  <GI50>
6.54 µM

$$$$
>  <Molecule>
CC/C(=C(\c1ccc(Cl)cc1)c1ccc(OCCN2CCCCC2)cc1)c1ccc(O)cc1

>  <System Name>
HOP-62 NSCLC

>  <GI50>
1.77 µM

$$$$

###

- Tested on: NCI-H23 lung
- Assay Overview: NCI tumour cell line growth inhibition, 48 h
Parameter TGI: see the listing below.
Measurement Name: TGI

>  <Compound>
CC(=O)OC1COC(n2c3ccccc3c3ccc4c5ccccc5[nH]c4c32)C(OC(C)=O)C1OC(C)=O (stereo not drawn)

>  <Result>
> 100 µM

$$$$
>  <Compound>
COc1ccc2c3ccc4c(c3n(C)c2c1)C(=O)C=CC4=O

>  <Result>
> 100 µM

$$$$
>  <Compound>
O=C(N/N=C\c1c(O)ccc2ccccc12)c1ccncc1

>  <Result>
> 25 µM

$$$$
>  <Compound>
COc1cc(C(=O)/C=C/c2c(C)n([O-])c3ccc(C(F)(F)F)cc3[n+]2=O)cc(OC)c1OC

>  <Result>
15.1 µM

$$$$
>  <Compound>
COc1cc2c3c(c1O)N=NC=3CCN=2

>  <Result>
38.2 µM

$$$$
>  <Compound>
CC#CC#Cc1cccc(=O)o1

>  <Result>
21.8 µM

$$$$
>  <Compound>
CCCCSC(=CC(=O)c1cccc(C(=O)C=C(SCCCC)SCCCC)n1)SCCCC

>  <Result>
> 100 µM

$$$$
>  <Compound>
Cc1ccc(-c2c3c(nn2-c2ccc(S(=O)(=O)NC(=O)Nc4ccccc4)cc2)-c2ccccc2C3)cc1

>  <Result>
37.6 µM

$$$$
>  <Compound>
Cc1cc(C)nc(NS(=O)(=O)c2ccc(NNc3c4ccccc4nc4c(C(=O)Nc5ccc(S(=O)(=O)N=C(N)N)cc5)cccc34)cc2)n1

>  <Result>
> 100 µM

$$$$
>  <Compound>
O=S(CCc1ccccc1)Nc1ccccc1 (stereo not drawn)

>  <Result>
> 100 µM

$$$$
>  <Compound>
Cc1cc(CN2CCCCC2)c(O)c(CN2CCCCC2)c1

>  <Result>
> 100 µM

$$$$
>  <Compound>
Cn1c(N)c(Cc2ccc(Cl)cc2)c(=O)[nH]c1=O

>  <Result>
> 100 µM

$$$$
>  <Compound>
CC(=O)Nc1cccc(C#Cc2cncnc2Nc2ccc(OCc3cccc(F)c3)c(Cl)c2)n1

>  <Result>
> 25 µM

$$$$
>  <Compound>
C/C(O)=c1\cc(C#N)c(=C(C#N)C#N)nc1C

>  <Result>
> 100 µM

$$$$
>  <Compound>
COc1ccc([C@H]2[C@H](C)C3=Nc4ccccc4CN32)cc1

>  <Result>
> 100 µM

$$$$
>  <Compound>
COC(=O)/C(=C(\C)NC(C)=O)c1c(C(=O)OC)[nH]c2ccccc12

>  <Result>
> 100 µM

$$$$
>  <Compound>
O=C(CCc1ccc(O)cc1)NCCc1cccc(O)c1

>  <Result>
> 50 µM

$$$$
>  <Compound>
CCOP(=O)(OCC)OC1c2[nH]ccc2-c2cc(C(=O)OC)[nH]c2C1OC (stereo not drawn)

>  <Result>
> 100 µM

$$$$
>  <Compound>
COc1ccc(C(=O)Cc2ccc(Cl)cc2)cc1OC

>  <Result>
> 100 µM

$$$$
>  <Compound>
COc1ccc(OC)c2c(C(=O)O)c(C(C)c3ccccc3)ccc12 (stereo not drawn)

>  <Result>
> 100 µM

$$$$
>  <Compound>
C=C(CN1CCc2ccccc2C1)c1ccc(CCC(=O)Nc2ccccc2N)cc1

>  <Result>
85.2 µM

$$$$
>  <Compound>
ClCc1nn(-c2ccccc2)c(CCl)c1CCl

>  <Result>
14.3 µM

$$$$
>  <Compound>
CC1=C(/C=C/C(C)=C/C=C/C(C)=C/C=C/C=C(C)/C=C/C=C(C)/C=C/C=C(C)/C=C/C=C(\C)C(=O)O)C(C)(C)CCC1

>  <Result>
> 100 µM

$$$$

###

- Test system: DU-145 prostate
- Assay Overview: NCI tumour cell line growth inhibition, 48 h
# Lookup of reported TGI keyed by entry

>  <Molecule>
C=C(CN1CCc2ccccc2C1)c1ccc(CCC(=O)Nc2ccccc2N)cc1

>  <TGI>
48.7 µM

$$$$
>  <Molecule>
O=C(Nc1ccc(OCc2nnc(-c3ccc(Cl)cc3)o2)c(F)c1)Nc1ccc(Cl)c(Cl)c1

>  <TGI>
21.3 µM

$$$$
>  <Molecule>
CCCCCC(=O)n1[nH]c(=O)n(-c2ccc(OC)cc2)c1=O

>  <TGI>
> 100 µM

$$$$
>  <Molecule>
COC(=O)c1ccc2[nH]c(O)c(C(=Nc3ccc(N(C)C(=O)CN4CCN(C)CC4)cc3)c3ccc(OC)cc3)c2c1

>  <TGI>
11.3 µM

$$$$
>  <Molecule>
N#Cc1nc(-c2ccccc2C(=O)O)oc1N

>  <TGI>
> 100 µM

$$$$
>  <Molecule>
Clc1ccc(-c2noc(CN3CCCCC3)n2)cc1

>  <TGI>
> 100 µM

$$$$
>  <Molecule>
O=C(O)CCC(N=C(C(=NC(CCC(=O)O)C(=O)O)c1ccccc1)c1ccccc1)C(=O)O (stereo not given)

>  <TGI>
> 100 µM

$$$$
>  <Molecule>
Cc1cn(C(=O)NC23CC4CC(CC(C4)C2)C3)c(=O)[nH]c1=O

>  <TGI>
> 100 µM

$$$$
>  <Molecule>
CC(=O)OC1(C)C(=O)OC/C2=C/CN(C)CCC(OC(=O)C(O)(C(C)Cl)CC1C)C2=O (stereo not given)

>  <TGI>
> 100 µM

$$$$
>  <Molecule>
Cc1nc2nn[nH]n2c(=O)c1CCO

>  <TGI>
> 100 µM

$$$$

###

- System: SF-295 CNS
- Assay Overview: NCI tumour cell line growth inhibition, 48 h
The following molecules are shown together with reported TGI values.

>  <Molecule>
CC1(C)C2CCC1(C)[C@H](O)[C@H]2Nc1cc(C(F)(F)F)cc(C(F)(F)F)c1 (stereo partly drawn)

>  <TGI>
7.27 µM

$$$$
>  <Molecule>
COc1cc(/C=C2/SC(c3ccccc3)N(c3cc(Cl)ccc3Cl)C2=O)cc(OC)c1OC (stereo not drawn)

>  <TGI>
> 100 µM

$$$$
>  <Molecule>
C[Si](C)(C)/N=C1\N2C(=NC1(C(F)(F)F)C(F)(F)F)Sc1ccccc12

>  <TGI>
> 50 µM

$$$$
>  <Molecule>
CC1=NN(C2=NS(=O)(=O)c3ccccc3N2C)C(=O)C1

>  <TGI>
> 100 µM

$$$$
>  <Molecule>
CC1=CP(=O)(OC(C)C)CC(C)=C1Cl (stereo not drawn)

>  <TGI>
> 100 µM

$$$$
>  <Molecule>
Cc1cc(CN2CCCCC2)c(O)c(CN2CCCCC2)c1

>  <TGI>
> 100 µM

$$$$
>  <Molecule>
C/C(=C\CO)CC/C=C(\C)CNc1ccccc1

>  <TGI>
> 100 µM

$$$$
>  <Molecule>
COc1ccc(C(=O)Cc2ccc(Cl)cc2)cc1OC

>  <TGI>
> 100 µM

$$$$
